Hey, just so you know, these numbers are from ChEMBL document CHEMBL3244013.

# Tested on: Mus musculus
# protocol description: Antianxiety activity in po dosed CD-1 mouse assessed as inhibition of foot shock-induced aggression after 30 mins relative to control
# Assay type: functional
# run conditions: CD-1, po, 0.5 h
reported metric: ED50 (mg/kg)
State just the number; it will be interpreted in mg/kg.

Solved cases below.
1. CCN/C=C1\N=C2CN=C(c3ccccc3)c3cc(Cl)ccc3N2C1=O : 1.45
2. CCN/C=C1\N=C2CN=C(c3ccccc3Cl)c3cc(Cl)ccc3N2C1=O : 1
3. O=C1/C(=C/NCCO)N=C2CN=C(c3ccccc3)c3cc(Cl)ccc3N12 : 1.5
4. CCN1CCN(/C=C2\N=C3CN=C(c4ccccc4Cl)c4cc([N+](=O)[O-])ccc4N3C2=O)CC1 : 0.34

Here's the next entry for you.
-- ask Look up ED50 for this molecule: CN1CCCC/C1=C1\N=C2CN=C(c3ccccc3)c3cc(Cl)ccc3N2C1=O
-- reply 20

###

# System: Mus musculus
# protocol description: Antianxiety activity in po dosed CD-1 mouse assessed as inhibition of foot shock-induced aggression after 30 mins relative to control
# Type: functional
# run conditions: CD-1, po, 0.5 h
Catalogue of ED50 values

1. O=C1/C(=C/N2CCCCC2)N=C2CN=C(c3ccccc3)c3cc(Cl)ccc3N12 : > 20 mg/kg

-- ask API: value(readout=ED50, system=Mus musculus) for record C/C(=C1/N=C2CN=C(c3ccccc3)c3cc(Cl)ccc3N2C1=O)N1CCNCC1
-- reply > 20 mg/kg

-- ask Please state recorded ED50 (tested on Mus musculus) of O=C1/C(=C/N2CCN(c3ccccc3)CC2)N=C2CN=C(c3ccccc3)c3cc(Cl)ccc3N12
-- reply > 50 mg/kg

-- ask Give ED50 (Mus musculus) of the following molecule: O=CN1CCN(/C=C2\N=C3CN=C(c4ccccc4)c4cc(Cl)ccc4N3C2=O)CC1
-- reply > 20 mg/kg

###

# Test system: Mus musculus
# protocol description: Potentiation of chlorprothixene-induced sedative effect in po dosed CD-1 mouse assessed as loss of righting reflex
# Assay type: functional
# run conditions: CD-1, po
reported metric: ED50 (mg/kg)
Only the number, expressed in mg/kg, is required.

-- ask Quick check: ED50 on Mus musculus, item CC(C)N1CCN(/C=C2\N=C3CN=C(c4ccccc4)c4cc(Cl)ccc4N3C2=O)CC1 ?
-- reply 6.4

-- ask Checklist item: ED50 tested on Mus musculus, entry CN1CCN(/C=C2\N=C3CN=C(c4ccccc4)c4cc(Cl)ccc4N3C2=O)CC1 , value?
-- reply 4.6

-- ask Mus musculus / ED50 / CNC1=Nc2ccc(Cl)cc2C(c2ccccc2)=[N+]([O-])C1 [CHLORDIAZEPOXIDE] : value?
-- reply 4
